# credit: patent US20110081661A1

tested_on: T1, GIP Receptor (Homo sapiens, UniProt P48546)
T1 construct: host or cells: HEK293T
T1 sequence (P48546 22-466): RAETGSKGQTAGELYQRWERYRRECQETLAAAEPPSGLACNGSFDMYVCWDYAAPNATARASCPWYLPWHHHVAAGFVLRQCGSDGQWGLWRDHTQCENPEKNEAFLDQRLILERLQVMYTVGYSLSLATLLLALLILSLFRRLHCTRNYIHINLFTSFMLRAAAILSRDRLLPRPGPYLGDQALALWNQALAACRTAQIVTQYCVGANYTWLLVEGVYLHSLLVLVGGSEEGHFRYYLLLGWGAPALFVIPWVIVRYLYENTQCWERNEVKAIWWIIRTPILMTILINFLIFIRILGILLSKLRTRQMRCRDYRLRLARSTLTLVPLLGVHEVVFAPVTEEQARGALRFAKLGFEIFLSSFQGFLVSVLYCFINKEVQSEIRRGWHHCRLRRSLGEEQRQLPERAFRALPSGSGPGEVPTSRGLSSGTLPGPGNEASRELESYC
assay_protocol: GIP receptor-mediated bioluminescence in HEK293T cells with chimeric promiscuous G protein (FIG. 5, Table II)
Type: cell-based
condition_label: signal induced by maximal GIP (1 μM) as percentage of signal induced by Triton X-100 with 1 mM Ca^2+
reported_metric: % GPCR/total
State the result as a value with its unit after it.

* Mt-clytin K168G: Mitochondrial K168G modified Clytin, SEQ ID NO:16 (protein) MSVLTPLLLRGLTGSARRLPVPRAKIHSLPPEGKLRPNFDNPKWVNRHKFMFNFLDINGDGKITLDEIVSKASDDICAKLGATPEQTKRHQDAVEAFFKKIGMDYGKEVEFPAFVDGWKELANYDLKLWSQNKKSLIRDWGEAVFDIFDKDGSGSISLDEWKAYGRISGICSSDEDAEKTFKHCDLDNSGGLDVDEMTRQHLGFWYTLDPNADGLYGNFVP | 19.3%
* Cyto-clytin K168E: K168E modified Clytin amino acid sequence, SEQ ID NO:11; cytosolic (protein) MADTASKYAVKLRPNFDNPKWVNRHKFMFNFLDINGDGKITLDEIVSKASDDICAKLGATPEQTKRHQDAVEAFFKKIGMDYGKEVEFPAFVDGWKELANYDLKLWSQNKKSLIRDWGEAVFDIFDKDGSGSISLDEWKAYGRISGICSSDEDAEKTFKHCDLDNSGELDVDEMTRQHLGFWYTLDPNADGLYGNFVP | 26.2%
* Mt-clytin K168D: Mitochondrial K168D modified Clytin, SEQ ID NO:10 (protein) MSVLTPLLLRGLTGSARRLPVPRAKIHSLPPEGKLRPNFDNPKWVNRHKFMFNFLDINGDGKITLDEIVSKASDDICAKLGATPEQTKRHQDAVEAFFKKIGMDYGKEVEFPAFVDGWKELANYDLKLWSQNKKSLIRDWGEAVFDIFDKDGSGSISLDEWKAYGRISGICSSDEDAEKTFKHCDLDNSGDLDVDEMTRQHLGFWYTLDPNADGLYGNFVP | 34.4%
* Cyto-clytin wt: Wild type Clytin (wt-Clytin) amino acid sequence, SEQ ID NO:1; cytosolic (protein, listed as Clytia gregaria) MADTASKYAVKLRPNFDNPKWVNRHKFMFNFLDINGDGKITLDEIVSKASDDICAKLGATPEQTKRHQDAVEAFFKKIGMDYGKEVEFPAFVDGWKELANYDLKLWSQNKKSLIRDWGEAVFDIFDKDGSGSISLDEWKAYGRISGICSSDEDAEKTFKHCDLDNSGKLDVDEMTRQHLGFWYTLDPNADGLYGNFVP | 0.3%

Query: # return recorded % GPCR/total for input Mt-clytin K168Q: Mitochondrial K168Q modified Clytin, SEQ ID NO:20 (protein) MSVLTPLLLRGLTGSARRLPVPRAKIHSLPPEGKLRPNFDNPKWVNRHKFMFNFLDINGDGKITLDEIVSKASDDICAKLGATPEQTKRHQDAVEAFFKKIGMDYGKEVEFPAFVDGWKELANYDLKLWSQNKKSLIRDWGEAVFDIFDKDGSGSISLDEWKAYGRISGICSSDEDAEKTFKHCDLDNSGQLDVDEMTRQHLGFWYTLDPNADGLYGNFVP
Response: 14.2%

Query: # return recorded % GPCR/total for input Cyto-aequorin: Wild-type Aequorin (wt-Aequorin) amino acid sequence, SEQ ID NO:2; cytosolic (protein, listed as Aequorea victoria) MTSKQYSVKLTSDFDNPRWIGRHKHMFNFLDVNHNGKISLDEMVYKASDIVINNLGATPEQAKRHKDAVEAFFGGAGMKYGVETDWPAYIEGWKKLATDELEKYAKNEPTLIRIWGDALFDIVDKDQNGAITLDEWKAYTKAAGIIQSSEDCEETFRVCDIDESGQLDVDEMTRQHLGFWYTMDPACEKLYGGAVP
Response: 13.0%
